Biological target: human PD-1 (Jurkat-PD-1 cells) / PE-labeled human PD-L1-Ig (Homo sapiens)
Construct: expressed in transfected cells; host or cells: Jurkat cell line over-expressing human PD-1
Sequence (Q15116 25-288): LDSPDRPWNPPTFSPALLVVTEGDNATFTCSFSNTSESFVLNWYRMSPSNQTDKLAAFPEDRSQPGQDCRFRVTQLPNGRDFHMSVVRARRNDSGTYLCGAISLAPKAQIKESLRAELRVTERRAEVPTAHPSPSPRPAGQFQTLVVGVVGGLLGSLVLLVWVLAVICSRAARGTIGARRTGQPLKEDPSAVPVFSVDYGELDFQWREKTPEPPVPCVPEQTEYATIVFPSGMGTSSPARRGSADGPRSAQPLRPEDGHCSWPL
Test: Jurkat-PD-1 Cell Binding High-Content Screening Assay (CBA); Jurkat hPD1-PDL1 assay
Conditions: Jurkat cell line over-expressing human PD-1; PE-labeled PD-L1-Ig 20 nM final; compound incubated 2 hours at 37° C.; read-out: Jurkat HPD1-PDL1 IC50
Positions of bridges follow the written chain, without caps; N, C: chain ends. Non-standard residues stand in square brackets, D forms with d. Residues, ends and D or L forms follow the SMILES beside them. Phe(4-CH2NH2) = NCc1ccc(C[C@H](N)C(=O)O)cc1; Bip = N[C@@H](Cc1ccc(-c2ccccc2)cc1)C(=O)O; NMeF = CN[C@@H](Cc1ccccc1)C(=O)O; 4Pal = N[C@@H](Cc1ccncc1)C(=O)O; NMeA = CN[C@@H](C)C(=O)O; Dab = NCC[C@H](N)C(=O)O; Sar = CNCC(=O)O
// NB: equality with 0.3 µM counts as 0.0; only IC50 strictly below is 1.0

COMPOUND	LABEL CLASS
CC(C)C[C@@H]1NC(=O)[C@H](Cc2c[nH]c3ccccc23)NC(=O)[C@H](CC(=O)O)NC(=O)[C@H](Cc2ccccc2)NC(=O)[C@H](Cc2ccccc2)NC(=O)CSC[C@@H](C(=O)N[C@@H](C)C(N)=O)NC(=O)[C@H](CO)NC(=O)[C@H](C(C)C)NC(=O)[C@H](CC(C)C)NC(=O)[C@H](CC(N)=O)NC(=O)CN(C)C(=O)[C@H](C)N(C)C(=O)[C@H](C(C)C)NC(=O)[C@H](Cc2ccc(-c3ccccc3)cc2)NC1=O [Example 1165] ({CH2CO}-FFDWL[Bip]V[NMeA][Sar]NLVSCA-NH2; thioether N-14)	0.0
CC(C)C[C@@H]1NC(=O)CSC[C@@H](C(=O)NCC(N)=O)NC(=O)[C@H](CO)NC(=O)[C@H](C(C)C)NC(=O)[C@H](CC(C)C)NC(=O)[C@H](CCN)NC(=O)[C@H](Cc2ccccc2)N(C)C(=O)[C@H](C)N(C)C(=O)[C@H](CCCNC(=N)N)NC(=O)[C@H](Cc2ccc(-c3ccccc3)cc2)NC(=O)[C@H](C(C)C)NC(=O)[C@H](Cc2c[nH]c3ccccc23)NC(=O)[C@H](CC(=O)O)NC(=O)[C@H](Cc2ccc(O)cc2)NC1=O [Example 1289] ({CH2CO}-LYDWV[Bip]R[NMeA][NMeF][Dab]LVSCG-NH2; thioether N-14)	1.0
CC(C)C[C@@H]1NC(=O)[C@H](CC(N)=O)NC(=O)CN(C)C(=O)[C@H](C)N(C)C(=O)[C@H](C(C)C)NC(=O)[C@H](Cc2ccc(-c3ccccc3)cc2)NC(=O)[C@H](C(C)C)NC(=O)[C@H](Cc2c[nH]c3ccccc23)NC(=O)[C@H](CC(=O)O)NC(=O)[C@H](Cc2ccc(O)cc2)NC(=O)[C@H](Cc2ccccc2)NC(=O)CSC[C@@H](C(=O)N[C@@H](C)C(N)=O)NC(=O)[C@H](CO)NC(=O)[C@H](C(C)C)NC1=O [Example 1149] ({CH2CO}-FYDWV[Bip]V[NMeA][Sar]NLVSCA-NH2; thioether N-14)	0.0
CC(C)C[C@@H]1NC(=O)[C@H](Cc2c[nH]c3ccccc23)NC(=O)[C@H](CC(=O)O)NC(=O)[C@H](Cc2ccc(O)cc2)NC(=O)[C@H](Cc2ccccc2)NC(=O)CSC[C@@H](C(=O)N[C@@H](CCC(=O)O)C(N)=O)NC(=O)[C@H](CO)NC(=O)[C@H](C(C)C)NC(=O)[C@H](CC(C)C)NC(=O)[C@H](CC(N)=O)NC(=O)CN(C)C(=O)[C@H](C)N(C)C(=O)[C@H](C(C)C)NC(=O)[C@H](Cc2ccc(-c3ccccc3)cc2)NC1=O [Example 1251] ({CH2CO}-FYDWL[Bip]V[NMeA][Sar]NLVSCE-NH2; thioether N-14)	0.0
CC(C)C[C@@H]1NC(=O)[C@H](Cc2c[nH]c3ccccc23)NC(=O)[C@H](CC(=O)O)NC(=O)[C@H](Cc2ccc(O)cc2)NC(=O)[C@H](Cc2ccncc2)NC(=O)CSC[C@@H](C(=O)NCC(N)=O)NC(=O)[C@H](CO)NC(=O)[C@H](C(C)C)NC(=O)[C@H](CC(C)C)NC(=O)[C@H](CC(N)=O)NC(=O)CN(C)C(=O)[C@H](C)N(C)C(=O)[C@H](C(C)C)NC(=O)[C@H](Cc2ccc(-c3ccccc3)cc2)NC1=O [Example 1107] ({CH2CO}-[4Pal]YDWL[Bip]V[NMeA][Sar]NLVSCG-NH2; thioether N-14)	0.0
CC(C)C[C@@H]1NC(=O)[C@H](Cc2c[nH]c3ccccc23)NC(=O)[C@H](CC(=O)O)NC(=O)[C@H](Cc2ccc(CN)cc2)NC(=O)[C@H](Cc2ccccc2)NC(=O)CSC[C@@H](C(=O)N[C@@H](C)C(N)=O)NC(=O)[C@H](CO)NC(=O)[C@H](C(C)C)NC(=O)[C@H](CC(C)C)NC(=O)[C@H](CC(N)=O)NC(=O)[C@H]2CCCN2C(=O)[C@H](C)N(C)C(=O)[C@H](C(C)C)NC(=O)[C@H](Cc2ccc(-c3ccccc3)cc2)NC1=O [Example 1040] ({CH2CO}-F[Phe(4-CH2NH2)]DWL[Bip]V[NMeA][dP]NLVSCA-NH2; thioether N-14)	1.0
CC(C)C[C@@H]1NC(=O)[C@H](CCCNC(=N)N)NC(=O)CN(C)C(=O)[C@H](C)N(C)C(=O)[C@H](C(C)C)NC(=O)[C@H](Cc2ccc(-c3ccccc3)cc2)NC(=O)[C@H](C(C)C)NC(=O)[C@H](Cc2c[nH]c3ccccc23)NC(=O)[C@H](CC(=O)O)NC(=O)[C@H](Cc2ccc(O)cc2)NC(=O)[C@H](Cc2ccccc2)NC(=O)CSC[C@@H](C(=O)NCC(N)=O)NC(=O)[C@H](CO)NC(=O)[C@H](C(C)C)NC1=O [Example 1230] ({CH2CO}-FYDWV[Bip]V[NMeA][Sar]RLVSCG-NH2; thioether N-14)	1.0
CC(C)C[C@@H]1NC(=O)[C@H](CCCNC(=N)N)NC(=O)[C@H](Cc2ccccc2)N(C)C(=O)[C@H](C)N(C)C(=O)[C@H](CCCNC(=N)N)NC(=O)[C@H](Cc2ccc(-c3ccccc3)cc2)NC(=O)[C@H](C(C)C)NC(=O)[C@H](Cc2c[nH]c3ccccc23)NC(=O)[C@H](CC(=O)O)NC(=O)[C@H](Cc2cnc[nH]2)NC(=O)[C@H](Cc2ccccc2)NC(=O)CSC[C@@H](C(=O)NCC(N)=O)NC(=O)[C@H](CO)NC(=O)[C@H](C(C)C)NC1=O [Example 1249] ({CH2CO}-FHDWV[Bip]R[NMeA][NMeF]RLVSCG-NH2; thioether N-14)	1.0
